Each entry below carries its reported WBC.
Organism: Rattus norvegicus
procedure.text: Open TG-GATES - Regimen: Daily Repeat
Assay type: toxicity, organism-based, Sprague-Dawley
Design: regimen Daily Repeat, gender Male, age 6 weeks
measurement.parameters: in vivo, po, 300 mg/kg, 72 h, tissue Blood, route gavage, dose level Middle, time 3 day
Enter your answer as a number in x10_2/uL; do not include the unit.

compound | WBC, x10_2/uL
CC(=O)[C@@]1(O)CC[C@H]2[C@@H]3C=C(Cl)C4=CC(=O)CC[C@]4(C)[C@H]3CC[C@@]21C | 96.1
O=C(O)c1ccccc1Nc1ccccc1 | 91.3

Looking up CCCCNC(=O)NS(=O)(=O)c1ccc(C)cc1 [TOLBUTAMIDE] , I see its WBC listed as 108

Form: compound = CC(S)C(=O)NCC(=O)O (centres undefined) ; WBC = 96

Origin of values: ChEMBL document CHEMBL3885861
